tested on: Canis familiaris; experiment: Diuretic activity in mongrel dog assessed as excretion of potassium ion at 5 mg/kg, iv measured after 15 and 45 mins (reference value: 15 to 55 uequiv/min); type: functional, Canis lupus familiaris, Urine
recorded-metric: Activity (uEq/min)

{"structure-smiles": "CC(=O)/C=C/c1ccc(OCC(=O)O)c(Cl)c1Cl", "reported-result": 76}
{"structure-smiles": "COc1cc(/C=C/C(C)=O)ccc1OCC(=O)O", "reported-result": 36}
{"structure-smiles": "O=C(O)COc1ccc(/C=C2\\CCCCC2=O)c(Cl)c1Cl", "reported-result": 119}
{"structure-smiles": "CC(=O)/C(C)=C/c1ccc(OCC(=O)O)c(Cl)c1Cl", "reported-result": 132}
{"structure-smiles": "C/C(C=O)=C\\c1ccc(OCC(=O)O)c(Cl)c1Cl", "reported-result": 51}
